molecular target: T1, human PD-L1 (human, UniProt Q9NZQ7 19-290); experiment: flow cytometry, CHO cells stably expressing PD-L1
T1 construct: also called huPD-L1; CD274
T1 sequence (Q9NZQ7 19-290): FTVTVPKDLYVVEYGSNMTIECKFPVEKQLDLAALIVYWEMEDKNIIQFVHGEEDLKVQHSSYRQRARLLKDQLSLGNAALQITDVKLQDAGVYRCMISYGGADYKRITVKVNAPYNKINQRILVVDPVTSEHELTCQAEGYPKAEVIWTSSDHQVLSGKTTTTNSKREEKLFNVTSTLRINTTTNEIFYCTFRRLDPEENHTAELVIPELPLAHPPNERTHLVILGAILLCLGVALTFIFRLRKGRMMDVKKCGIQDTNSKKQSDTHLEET
Measurement label: MFI at 33.3 nM (MFI)

Solved entries (count: 2):
- Binder: "CD80 IgV-Fc T13R/Q33R/E35D/M38I/M47L/V68M/L85M (Fc fusion, not shown: a dimerising Fc or GST) VIHVTKEVKEVARLSCGHNVSVEELAQTRIYWRKDKKIVLTMMSGDLNIWPEYKNRTIFDITNNLSIMILALRPSDEGTYECVVMKYEKDAFKREHLAEVTLSVKAD"
  MFI at 33.3 nM [MFI]: 1110
- Binder: "CD80 IgV-Fc T13R/Q33R/E35D/M38I/M47L/V68M/E95V/L97Q (Fc fusion, not shown: a dimerising Fc or GST) VIHVTKEVKEVARLSCGHNVSVEELAQTRIYWRKDKKIVLTMMSGDLNIWPEYKNRTIFDITNNLSIMILALRPSDEGTYECVVLKYEKDAFKRVHQAEVTLSVKAD"
  MFI at 33.3 nM [MFI]: 19200

a = CD80 IgV-Fc T13R/Q33L/E35D/M47L/V68M/L85M (Fc fusion, not shown: a dimerising Fc or GST) VIHVTKEVKEVARLSCGHNVSVEELAQTRIYWLKDKKMVLTMMSGDLNIWPEYKNRTIFDITNNLSIMILALRPSDEGTYECVVMKYEKDAFKREHLAEVTLSVKAD
b = CD80 IgV-Fc T13R/Q33R/E35D/M47L/V68M (Fc fusion, not shown: a dimerising Fc or GST) VIHVTKEVKEVARLSCGHNVSVEELAQTRIYWRKDKKMVLTMMSGDLNIWPEYKNRTIFDITNNLSIMILALRPSDEGTYECVVLKYEKDAFKREHLAEVTLSVKAD
Ask: Form field 'greater MFI at 33.3 nM' accepts a or b ; which applies? Return value: the label identifying the chosen record.
Result: b
(b: 14700 MFI, a: 3230 MFI)
